Measurement Protocol: Cytotoxicity against mock transfected human HEK cells at 10 uM after 20 to 24 hrs by Cell titer cell proliferation assay
Type: cell-based
Condition Label: hek293, 10 µM
Attribute Measured: Activity

Use the examples below as a reference point.
CC1(CCO)Cc2ccccc2C(=O)N1c1ccccc1 (configuration not stated)
Non-toxic
CC1(CCOC(=O)c2ccccc2)Cc2ccccc2CN1C(=O)c1ccccc1 (configuration not stated)
Toxic
CC1(COC(=O)c2ccco2)Cc2ccccc2CN1C(=O)c1ccco1 (configuration not stated)
Non-toxic
CC1(COC(=O)c2ccccc2)Cc2ccccc2CN1C(=O)c1ccccc1 (configuration not stated)
Toxic
CCCCCCCCCC(=O)N(CCN(C)C)CC1(C)Cc2ccccc2C(=O)N1 (configuration not stated)
Non-toxic

Query: I have this compound here, CC1(CCOC(=O)Cc2ccccc2)Cc2ccccc2CN1C(=O)Cc1ccccc1 (configuration not stated) , and I need its recorded Activity.
Response: Toxic

Query: // query Activity value for entry CC1(COC(=O)Cc2ccccc2)Cc2ccccc2CN1C(=O)Cc1ccccc1 (configuration not stated)
Response: Non-toxic
